system: human glioma cell U87; test: MTT anticancer assay, U87; assay type: cell-based; details: 48 h exposure, mean ± SD, dash = footnote d 'None'

molecule | unit-text | comparison-symbol | IC50
COc1cc(OC)c2c(=O)c(OCCCCN3CCN(C(=O)c4ccncc4)CC3)c(-c3cc(OC)c(OC)c(OC)c3)oc2c1 | nM | = | 2500
COc1cccc2c1C(=O)c1c(O)c3c(c(O)c1C2=O)C[C@@](O)(C(=O)CO)C[C@@H]3O[C@H]1C[C@H](N)[C@H](O)[C@H](C)O1 [ADM, doxorubicin, reference compound] | nM | = | 2240
COc1cc(OC)c2c(=O)c(OCCCCN3CCN(C(=O)c4c(F)cccc4F)CC3)c(-c3cc(OC)c(OC)c(OC)c3)oc2c1 | nM | > | 60000
